Data provenance: PubChem BioAssay AID1345085

- Tested on: PA-1
- method: Confirmatory qHTS for gynecologic anti-cancer compounds from libraries of approved drugs and bioactive compounds; further: potency means the concentration at half of the fitted maximal effect; nearly all actives have a fitted effect of over 55% in size
- condition.details: gynecologic cancer cell panel viability, ATPlite luminescence, 48 h; series mostly up to 57.6 µM
Records with an inconclusive call do not appear. The source made the active and inactive calls. The call rests on the fitted dose curve; in most records, active means well fitted cell-killing curve with a large enough effect; inconclusive means small, poorly fitted or top-dose-only effect, or effect the other way; inactive means no such curve, though single readings can be large or run the other way.
Items are presented alongside their recorded Potency.

{"compound": "CCNC(=O)C[C@@H]1N=C(c2ccc(Cl)cc2)c2cc(OC)ccc2-n2c(C)nnc21", "target": "PA-1", "Potency": "4.32 µM (active)"}
{"compound": "Cc1sc2c(c1C)C(c1ccc(Cl)cc1)=NC(CC(=O)OC(C)(C)C)c1nnc(C)n1-2 (stereo unspecified)", "target": "PA-1", "Potency": "1.53 µM (active)"}
{"compound": "C[C@H]1CCC/C=C/C2C[C@H](O)C[C@H]2[C@H](O)/C=C/C(=O)O1 (stereo partly specified)", "target": "PA-1", "Potency": "0.172 µM (active)"}
{"compound": "CCOc1ccccc1-n1c(C(C)N2CCN(C(=O)COc3ccc(Cl)cc3)CC2)nc2ccccc2c1=O (stereo unspecified)", "target": "PA-1", "Potency": "13.7 µM (active)"}
{"compound": "C=C(C)[C@H]1Cc2c(ccc3c2O[C@@H]2COc4cc(OC)c(OC)cc4[C@@H]2C3=O)O1", "target": "PA-1", "Potency": "0.0273 µM (active)"}
